Consider the following molecules and their measured Inhibitor-binding relative Kimutation, inhibitor binding in Tris buffer pH 8 readings.
Experiment: Determination of binding constants of inhibitor in Tris buffer at pH 8
Assay type: biochemical
Details: Ki of variant with the mutation relative to variant without the mutation
OBSERVED_PROPERTY: Inhibitor-binding relative Kimutation, inhibitor binding in Tris buffer pH 8

MOLECULE	REPORTED
K146W, S173P, S175P, F180Y: TY145 protease (SEQ ID NO 3) variant with these substitutions (protein, listed as Bacillus sp.) AVPSTQTPWGIKSIYNDQSITKTTGGSGIKVAVLDTGVYTSHLDLAGSAEQCKDFTQSNPLVDGSCTDRQGHGTHVAGTVLAHGGSNGQGVYGVAPQAKLWAYKVLGDNGSGYSDDIAAAIRHVADEASRTGSKVVINMSLGSSAWDSLIASAVDYAYGKGVLIVAAAGNSGPGPNTIGYPGGLVNAVAVAALENVQQNGTYRVADFSSRGNPATAGDYIIQERDIEVSAPGASVESTWYTGGYNTISGTSMATPHVAGLAAKIWSANTSLSHSQLRTELQNRAKVYDIKGGIGAGTGDDYASGFGYPRVK	0.16
I150N, S173P, S175P, F180Y: TY145 protease (SEQ ID NO 3) variant with these substitutions (protein, listed as Bacillus sp.) AVPSTQTPWGIKSIYNDQSITKTTGGSGIKVAVLDTGVYTSHLDLAGSAEQCKDFTQSNPLVDGSCTDRQGHGTHVAGTVLAHGGSNGQGVYGVAPQAKLWAYKVLGDNGSGYSDDIAAAIRHVADEASRTGSKVVINMSLGSSAKDSLNASAVDYAYGKGVLIVAAAGNSGPGPNTIGYPGGLVNAVAVAALENVQQNGTYRVADFSSRGNPATAGDYIIQERDIEVSAPGASVESTWYTGGYNTISGTSMATPHVAGLAAKIWSANTSLSHSQLRTELQNRAKVYDIKGGIGAGTGDDYASGFGYPRVK	0.21
K146T, S173P, S175P, F180Y: TY145 protease (SEQ ID NO 3) variant with these substitutions (protein, listed as Bacillus sp.) AVPSTQTPWGIKSIYNDQSITKTTGGSGIKVAVLDTGVYTSHLDLAGSAEQCKDFTQSNPLVDGSCTDRQGHGTHVAGTVLAHGGSNGQGVYGVAPQAKLWAYKVLGDNGSGYSDDIAAAIRHVADEASRTGSKVVINMSLGSSATDSLIASAVDYAYGKGVLIVAAAGNSGPGPNTIGYPGGLVNAVAVAALENVQQNGTYRVADFSSRGNPATAGDYIIQERDIEVSAPGASVESTWYTGGYNTISGTSMATPHVAGLAAKIWSANTSLSHSQLRTELQNRAKVYDIKGGIGAGTGDDYASGFGYPRVK	0.06
S114Q, S173P, S175P, F180Y: TY145 protease (SEQ ID NO 3) variant with these substitutions (protein, listed as Bacillus sp.) AVPSTQTPWGIKSIYNDQSITKTTGGSGIKVAVLDTGVYTSHLDLAGSAEQCKDFTQSNPLVDGSCTDRQGHGTHVAGTVLAHGGSNGQGVYGVAPQAKLWAYKVLGDNGSGYQDDIAAAIRHVADEASRTGSKVVINMSLGSSAKDSLIASAVDYAYGKGVLIVAAAGNSGPGPNTIGYPGGLVNAVAVAALENVQQNGTYRVADFSSRGNPATAGDYIIQERDIEVSAPGASVESTWYTGGYNTISGTSMATPHVAGLAAKIWSANTSLSHSQLRTELQNRAKVYDIKGGIGAGTGDDYASGFGYPRVK	0.34
